Entry source: patent US20250108048A1

target.or.test.system: hSTING AQ (Homo sapiens, UniProt Q86WV6, G230A/H232R/R293Q)
Sequence (Q86WV6 whole entry G230A/H232R/R293Q): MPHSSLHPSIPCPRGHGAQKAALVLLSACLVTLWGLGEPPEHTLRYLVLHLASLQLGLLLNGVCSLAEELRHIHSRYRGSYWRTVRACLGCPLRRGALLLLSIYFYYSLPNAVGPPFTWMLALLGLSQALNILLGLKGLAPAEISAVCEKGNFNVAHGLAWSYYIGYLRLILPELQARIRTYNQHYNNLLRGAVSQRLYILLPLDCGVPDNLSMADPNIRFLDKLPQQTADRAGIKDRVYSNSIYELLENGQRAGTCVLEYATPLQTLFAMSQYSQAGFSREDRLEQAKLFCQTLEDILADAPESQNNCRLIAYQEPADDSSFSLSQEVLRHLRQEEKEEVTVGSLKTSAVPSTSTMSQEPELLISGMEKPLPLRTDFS
assay.summary: Surface plasmon resonance, hSTING AQ
conditions: read-out: hSTING AQ SPR (Kd)
What Kd was measured for each of the following?

Incoming: So what Kd did CCn1nc(C)cc1C(=O)Nc1nc2cc(C(N)=O)ccc2n1C/C=C/Cn1c(NC(=O)c2cc(C)nn2CC)nc2cc(C(N)=O)cc(OCCCN3CC4(C3)CN(C(=O)CON=C(C)c3ccc(C[C@H](N)C(=O)O)cc3)CCO4)c21 (racemic) get with hSTING AQ (Homo sapiens, UniProt Q86WV6, G230A/H232R/R293Q)?
Outgoing: ≤ 20 nM

Incoming: What reported Kd corresponds to CCn1nc(C)cc1C(=O)Nc1nc2cc(C(N)=O)cc(OC)c2n1C/C=C/Cn1c(NC(=O)c2cc(C)nn2CC)nc2cc(C(N)=O)cc(OCCCN3CC4(C3)CN(C(=O)CCCCCON)CCO4)c21 on hSTING AQ (Homo sapiens, UniProt Q86WV6, G230A/H232R/R293Q)?
Outgoing: ≤ 20 nM

Incoming: Requested read-out Kd, target or system hSTING AQ (Homo sapiens, UniProt Q86WV6, G230A/H232R/R293Q), entry CCc1nc(C)oc1C(=O)Nc1nc2cc(C(N)=O)cc(OCCCN3CC4(C3)CN(C(=O)[C@@H](N)CC(C)C)CCO4)c2n1C/C=C/Cn1c(NC(=O)c2cc(C)nn2CC)nc2cc(C(N)=O)cc(OC)c21
Outgoing: ≤ 20 nM

Incoming: Record lookup: for hSTING AQ (Homo sapiens, UniProt Q86WV6, G230A/H232R/R293Q), what Kd belongs to CCn1nc(C)cc1C(=O)Nc1nc2cc(C(N)=O)ccc2n1C/C=C/Cn1c(NC(=O)c2cc(C)nn2CC)nc2cc(C(N)=O)cc(OCCCN3CC4(C3)CN(C(=O)CON)CCO4)c21 ?
Outgoing: ≤ 20 nM

Incoming: Request - read-out Kd | tested on hSTING AQ (Homo sapiens, UniProt Q86WV6, G230A/H232R/R293Q) | compound CCn1nc(C)cc1C(=O)Nc1nc2cc(C(N)=O)cc(OC)c2n1C/C=C/Cn1c(NC(=O)Cc2cc(C)nn2C)nc2cc(C(N)=O)cc(OCCCN3CC4(CNCCO4)C3)c21
Outgoing: ≥ 20 nM
